Numbers sourced from the supplement of paper PMC10307832.

# System: NCI-H2085
# ASSAY_EXPLANATION: relative viability (nuclei count vs DMSO), 5 days (fraction); higher = more cells survive
# CONDITION_DETAILS: first compound 0.08 µM
REPORTED_METRIC: relative viability
Returns: the value as a bare number; no unit string appended.

Lab note: measured relative viability of Cc1cnc(-c2cnc(NCCNc3ccc(C#N)cn3)nc2-c2ccc(Cl)cc2Cl)[nH]1 + CC(=O)c1c(C)c2cnc(Nc3ccc(N4CCNCC4)cn3)nc2n(C2CCCC2)c1=O [Palbociclib] (partner 0.5 µM) was 0.469

Lab note: measured relative viability of O=c1[nH]c2ccccc2n1C1CCN(CCCC(c2ccc(F)cc2)c2ccc(F)cc2)CC1 [Pimozide] + CC(C)C[C@H](NC(=O)[C@H](Cc1ccccc1)NC(=O)c1cnccn1)B(O)O [Bortezomib] (partner 0.002 µM) was 0.972

Lab note: measured relative viability of Cc1cnc(-c2cnc(NCCNc3ccc(C#N)cn3)nc2-c2ccc(Cl)cc2Cl)[nH]1 + O=C(c1cc(Cc2n[nH]c(=O)c3ccccc23)ccc1F)N1CCN(C(=O)C2CC2)CC1 [Olaparib] (partner 8 µM) was 0.804

Lab note: measured relative viability of Cc1cnc(-c2cnc(NCCNc3ccc(C#N)cn3)nc2-c2ccc(Cl)cc2Cl)[nH]1 + CC1(C)CCC(c2ccc(Cl)cc2)=C(CN2CCN(c3ccc(C(=O)NS(=O)(=O)c4ccc(N[C@H](CCN5CCOCC5)CSc5ccccc5)c(S(=O)(=O)C(F)(F)F)c4)cc3)CC2)C1 [Navitoclax] (partner 0.5 µM) was 1.17
